testSystem: KRAS WT (Homo sapiens (Human), UniProt P01116+P62937)
Sequence (P01116 other isoform, or with tags, fused parts or gaps): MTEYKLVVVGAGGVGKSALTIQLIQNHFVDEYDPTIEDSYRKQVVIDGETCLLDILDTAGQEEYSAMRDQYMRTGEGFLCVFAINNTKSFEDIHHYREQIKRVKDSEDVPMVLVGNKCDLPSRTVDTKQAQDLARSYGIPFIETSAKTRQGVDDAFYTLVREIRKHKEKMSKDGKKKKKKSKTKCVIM
Sequence (P62937 whole entry): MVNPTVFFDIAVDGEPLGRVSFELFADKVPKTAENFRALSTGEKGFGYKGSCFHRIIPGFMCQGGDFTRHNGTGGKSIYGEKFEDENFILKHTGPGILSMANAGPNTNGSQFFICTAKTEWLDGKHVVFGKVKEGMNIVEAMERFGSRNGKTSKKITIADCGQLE
measurementProtocol: Ras-Raf disruption/FRET/MOA assay (BRAF RBD, Cyclophilin A)
Format: biochemical
measurementContext: read-out: KRAS WT FRET data IC50
Procedure: Compound is present in plate wells as a 10-point 3-fold dilution series starting at a final concentration of 30 μM. After incubation at 25° C. for 3 hours, a mixture of Anti-His Eu—W1024 and anti-GST allophycocyanin is then added to assay sample wells at final concentrations of 10 nM and 50 nM, respectively, and the reaction incubated for an additional 1.5 hours. […]
Each entry below carries its recorded IC50.

Some solved entries appear below for comparison.
compound	IC50
CCn1c(-c2cccnc2[C@H](C)OC)c2c3cc(ccc31)-c1cc(O)cc(c1)C[C@H](NC(=O)C(C)Cc1ccncc1)C(=O)N1CCC[C@H](N1)C(=O)OCC(C)(C)C2 (some centres unmarked)	100 to 1000 nM
CCn1c(-c2cccnc2[C@H](C)OC)c2c3cc(ccc31)-c1cccc(c1)C[C@H](NC(=O)[C@H](C(C)C)N(C)C(=O)[C@H]1CCN(C)C1)C(=O)N1CCC[C@H](N1)C(=O)OCC(C)(C)C2	1000 to 10000 nM
CCn1c(-c2cnccc2COC)c2c3cc(ccc31)-c1cc(O)cc(c1)C[C@H](NC(=O)[C@H](C(C)C)N(C)c1nccs1)C(=O)N1CCC[C@H](N1)C(=O)OCC(C)(C)C2	1000 to 10000 nM
CCn1c(-c2cccnc2[C@H](C)OC)c2c3cc(ccc31)-c1cc(O)cc(c1)C[C@H](NC(=O)[C@H](C(C)C)N(C)C(=O)C13CCC(CC1)O3)C(=O)N1CCC[C@H](N1)C(=O)OCC(C)(C)C2	10 to 100 nM

Now consider the entry below.
GET /values?readout=IC50&item= CCn1c(-c2cccnc2[C@H](C)OC)c2c3cc(ccc31)-c1cc(O)cc(c1)C[C@H](NC(=O)[C@@H]1[C@H]3C[C@H]3CN1C(C)=O)C(=O)N1CCC[C@H](N1)C(=O)OCC(C)(C)C2
1000 to 10000 nM
